Tested on: alpha-adrenoceptor (isolated iliac arteries)
assay details: Contractile responses to phenylephrine of isolated iliac arteries from cynomolgus monkeys
Design: species or system cynomolgus (Macaca fascicularis) monkeys
conditions: Macaca fascicularis, Control group; Mean ± SEM; read-out: EC50 (phenylephrine-induced contraction)

{"smiles entry": "CNC[C@H](O)c1cccc(O)c1", "EC50, nM": 800}

----------
Tested on: voltage-dependent calcium channels (iliac rings)
assay details: Relaxation responses to nifedipine of CaCl2-contracted iliac rings from cynomolgus monkeys
Design: species or system cynomolgus (Macaca fascicularis) monkeys
conditions: Macaca fascicularis, control group; contracted with 2.5 mM CaCl2 in K^+ PSS; mean±SEM
From the text: Twenty-four male cynomolgus (Macaca fascicularis) monkeys were divided into four groups of six animals each. During the course of the study, one of the control monkeys was sacrificed due to ill health unrelated to the study. Each group was fed a different diet for six months. The control group ate a normal diet of monkey biscuit. The cholesterol group ate a specially formulated monkey diet containing cholesterol. […]
pIC50: −log10 of the molar value.

{"molecule": "COC(=O)C1=C(C)NC(C)=C(C(=O)OC)C1c1ccccc1[N+](=O)[O-] [nifedipine]", "target desc": "voltage-dependent calcium channels (iliac rings)", "pIC50": 7.94}

Every entry's value here was drawn from patent US5212165A.
